# Test system: tet operator sequence
# protocol details: β-galactosidase activity of a tetracycline-regulated promoter in transformed E. coli with revTetR, in the presence and absence of anhydrotetracycline (atc)
# Format: cell-based, Escherichia coli
# measurement conditions: RevTetR isolate cultured in the absence of anhydrotetracycline (ATC)
# Method: The relative activity of revTetR repressors was determined at 28° C. and 37° C. for each clone by measuring β-galactosidase activity of a tetracycline-regulated promoter in transformed Escherichia coli in the presence and absence of the tetracycline analog, anhydrotetracycline (atc). The relative β-galactosidase activity was measured in standard Miller units and is presented as the percent of maximal expression as measured in the absence of Tet repressor. […]
endpoint: β-Galactosidase Activity, Cultured Without ATC

[
  {
    "molecule": "TetRrevAF4/4: revTetR(BD) G24A R94P D95E G102D (protein, Modified tetracycline repressor, revTetR(BD) G24A R94P D95E G102D) MSRLDKSKVINSALELLNEVGIEALTTRKLAQKLGVEQPTLYWHVKNKRALLDALAVEILARHHDYSLPAAGESWQSFLRNNAMSFRRALLRYPEGAKVHLDTRPDEKQYDTVETQLRFMTENGFSLRDGLYAISAVSHFTLGAVLEQQEHTAALTDRPAAPDENLPPLLREALQIMDSDDGEQAFLHGLESLIRGFEVQLTALLQIV",
    "value observed": 94.4528
  },
  {
    "molecule": "TetRrev04-1: revTetR(BD) G96E K98T (protein, Modified tetracycline repressor, revTetR(BD) G96E K98T) MSRLDKSKVINSALELLNEVGIEGLTTRKLAQKLGVEQPTLYWHVKNKRALLDALAVEILARHHDYSLPAAGESWQSFLRNNAMSFRRALLRYRDEATVHLGTRPDEKQYDTVETQLRFMTENGFSLRDGLYAISAVSHFTLGAVLEQQEHTAALTDRPAAPDENLPPLLREALQIMDSDDGEQAFLHGLESLIRGFEVQLTALLQIV",
    "value observed": 102.092
  }
]
